Reported response by item:
B1: λCI-ZipACTD (residues 186–328) [E. coli] / α-FtsZ fusion protein (wild-type E. coli FtsZ) [E. coli] (parent complex)
chain 1: not shown
chain 2: MFEPMELTNDAVIKVIGVGGGGGNAVEHMVRERIEGVEFFAVNTDAQALRKTAVGQTIQIGSGITKGLGAGANPEVGRNAADEDRDALRAALEGADMVFIAAGMGGGTGTGAAPVVAEVAKDLGILTVAVVTKPFNFEGKKRMAFAEQGITELSKHVDSLITIPNDKLLKVLGRGISLLDAFGAANDVLKGAVQGIAELITRPGLMNVDFADVRTVMSEMGYAMMGSGVASGEDRAEEAAEMAISSPLLEDIDLSGARGVLVNITAGFDLRLDEFETVGNTIRAFASDNATVVIGTSLDPDMNDELRVTVVATGIGMDKRPEITLVTNKQVQQPVMDRYQQHGMAPLTQEQKPVAKVVNDNAPQTAKEPDYLDIPAFLRKQAD

# Variants of: B1
# Protocol: bacterial two-hybrid β-galactosidase assay; 25 μM IPTG; parent: 720; read off a plot

| Mutant label | response |
| --- | --- |
| chain 2 L179R | ~880 Miller Units |
| chain 2 L169P | ~790 Miller Units |
| chain 2 D180N | ~770 Miller Units |
| chain 2 F182S | ~770 Miller Units |
| chain 2 S177P | ~790 Miller Units |
